molecular target: T1, huCTLA4 (antigen of the Octet experiments) (human, UniProt P16410 37-162, limits assumed); assay: BLI (Octet Red96), antibody on anti-hIgG Fc biosensor, huCTLA4 in solution, 1:1 fit
T1 construct: Construct of the soluble antigen not described; also called the antigen
T1 sequence (P16410 37-162 limits assumed): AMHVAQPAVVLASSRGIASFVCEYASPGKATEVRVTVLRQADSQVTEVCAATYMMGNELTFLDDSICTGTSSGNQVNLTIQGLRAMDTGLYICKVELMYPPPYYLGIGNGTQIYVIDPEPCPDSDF
koff by entry:
Give the quantity in s⁻¹, number only.

The cases that follow already have their koff on record.
# binder, quantity.kind, value
rows = [
    ("Humanized HC2 + LC3 (PP4635) (antibody, IgG1, V domains shown, Humanized L3D10; also called H3107 + L3108) VH: QVQLQESGPGLVKPSETLSLTCTVSGFSLTSYGLSWIRQPPGKGLEWIGYIWYDGNTNFHSSLKSRVTISKDTSKSQVSLKLSSVTAADTAVYYCAKTEGHYYGSNYGYYALDYWGQGTLVTVSS VL: DIQMTQSPSSLSASVGDRVTITCRASENIYSNLAWYQQKPGKAPKLLIYAATSLQSGVPSRFSGSGSGTDFTLTISSLQPEDFATYYCQHLWGTPYTFGGGTKVEIK", "koff", 0.002),
    ("Humanized HC1 + LC3 (PP4632) (antibody, IgG1, V domains shown, Humanized L3D10; also called H3106 + L3108) VH: QVQLQESGPGLVKPSETLSLTCTVSGFSLTSYGLSWIRQPPGKGLEWIGYIWYDGNTNFHPSLKSRVTISKDTSKNQFSLKLSSVTAADTAVYYCAKTEGHYYGSNYGYYALDYWGQGTSVTVSS VL: DIQMTQSPSSLSASVGDRVTITCRASENIYSNLAWYQQKPGKAPKLLIYAATSLQSGVPSRFSGSGSGTDFTLTISSLQPEDFATYYCQHLWGTPYTFGGGTKVEIK", "koff", 0.0019),
]

Now let's try a different one.
Query: koff; subject: Humanized HC3 + LC1 (PP4636) (antibody, IgG1, V domains shown, Humanized L3D10; also called H3108 + L3106) VH: QVQLQESGPGLVKPSETLSLTCTVSGFSLTSYGLSWIRQPPGKGLEWIGYIWYDGNTNFHSPLKSRVTISVDTSKNQFSLKLSSVTAADTAVYYCAKTEGHYYGSNYGYYALDYWGQGTLVTVSS VL: DIQMTQSPSSLSASVGDRVTITCRASENIYSNLAWYQQKPGKAPKLLLYAATNLQSGVPSRFSGSGSGTDFTLTISSLQPEDFATYYCQHLWGTPYTFGGGTKLEIK
Response: 0.0022
